Hey, just so you know, these numbers are from ChEMBL document CHEMBL5543057.

test: Half life in Sprague-Dawley rat at 50 mg/kg, ip measured for 24 hrs by LC-MS/MS analysis; assay type: ADME, organism-based; settings: in vivo

{"COMPOUND": "CCc1cc2c(cc1N1CCN(CCCCC(=O)NCC3CC4C=CC3C4)CC1)C(C)(C)c1[nH]c3cc(C#N)ccc3c1C2=O (stereo unspecified)", "half-life, min": 31.7}

====

test: Half life in Sprague-Dawley rat at 1 mg/kg, iv measured for 24 hrs by LC-MS/MS analysis; type: ADME, organism-based; details: in vivo

{"COMPOUND": "CCc1cc2c(cc1N1CCN(CCCCC(=O)NCC3CC4C=CC3C4)CC1)C(C)(C)c1[nH]c3cc(C#N)ccc3c1C2=O (stereo unspecified)", "UNIT_INFO": "min", "half-life": 25.2}

====

experiment: Clearance in Sprague-Dawley rat at 1 mg/kg, iv measured for 24 hrs by LC-MS/MS analysis; format: ADME, organism-based; conditions: in vivo

{"COMPOUND": "CCc1cc2c(cc1N1CCN(CCCCC(=O)NCC3CC4C=CC3C4)CC1)C(C)(C)c1[nH]c3cc(C#N)ccc3c1C2=O (stereo unspecified)", "clearance, mL/min/kg": 138}
